Listed here are compounds together with their documented max response.
Target: human CMKLR1 (Homo sapiens)
Construct: host or cells: HEK293A (Invitrogen), stably expressing human Gα15
Sequence (Q99788 whole entry): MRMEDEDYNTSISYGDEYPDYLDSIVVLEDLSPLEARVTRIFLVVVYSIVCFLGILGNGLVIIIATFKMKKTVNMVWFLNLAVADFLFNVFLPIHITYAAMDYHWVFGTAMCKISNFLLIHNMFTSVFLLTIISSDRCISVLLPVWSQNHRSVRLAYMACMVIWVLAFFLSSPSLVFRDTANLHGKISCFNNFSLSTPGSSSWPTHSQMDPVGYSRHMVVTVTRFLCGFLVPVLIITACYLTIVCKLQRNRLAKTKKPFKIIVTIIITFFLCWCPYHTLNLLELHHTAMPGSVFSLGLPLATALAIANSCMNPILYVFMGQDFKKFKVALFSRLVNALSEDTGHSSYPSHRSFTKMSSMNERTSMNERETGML
Assay: Ca2+ mobilization (CellLux imaging) agonist assay in HEK293A cells expressing CMKLR1 and Gα15
Type: cell-based
Settings: Ca2+ mobilization, CMKLR1; decimal comma
Square brackets hold non-standard residues; d marks the D form. Peptide text beside a SMILES is read from it.
Metric Name: max response

INSERT INTO assay_data (compound, metric_name, endpoint_value) VALUES
  ('CC(C)C[C@H](NC(=O)[C@@H]1CCCN1)C(=O)N1CCC[C@H]1C(=O)NCC(=O)N[C@@H](CCC(N)=O)C(=O)N[C@H](Cc1ccccc1)C(=O)N[C@@H](C)C(=O)N[C@@H](Cc1ccccc1)C(=O)N[C@@H](Cc1ccccc1)C(=O)O [compound 58] (H-PLPGQ[dF]AFF-OH; N-terminus assumed)', 'max response', '0,81 DF/F0'),
  ('CC(C)C[C@H](NC(=O)[C@H](Cc1ccc(O)cc1)NC(=O)[C@H](CCC(N)=O)NC(=O)[C@@H](Cc1ccccc1)NC(=O)[C@@H](CC(=O)O)NC(=O)[C@@H]1CCCN1C(=O)[C@H](CC(C)C)NC(=O)[C@@H](N)Cc1ccc(O)cc1)C(=O)N1CCC[C@H]1C(=O)O [compound 148] (H-YLP[dD][dF]QYLP-OH; N-terminus assumed)', 'max response', '1,74 DF/F0'),
  ('C[C@H](NC(=O)[C@H](Cc1ccccc1)NC(=O)[C@H](CCC(N)=O)NC(=O)CNC(=O)[C@@H]1CCCN1C(=O)[C@@H](N)Cc1ccccc1)C(=O)N[C@@H](Cc1ccccc1)C(=O)N[C@H](CO)C(=O)N[C@H](CO)C(=O)O [compound 105] (H-FPGQFAF[dS][dS]-OH; N-terminus assumed)', 'max response', '1,81 DF/F0');

---

Assay: In vitro peptide stability in human serum (RP-HPLC)
Conditions: human, human serum, 25% (v/v) in RPMI
Square brackets hold non-standard residues; d marks the D form. Peptide text beside a SMILES is read from it.
Metric Name: half-life at 50 µg/mL (h)

INSERT INTO results (molecule, endpoint_value) VALUES
  ('CC(C)C[C@H](NC(=O)[C@@H](N)Cc1ccc(O)cc1)C(=O)N1CCC[C@H]1C(=O)NCC(=O)N[C@@H](CCC(N)=O)C(=O)N[C@@H](Cc1ccccc1)C(=O)N[C@H](Cc1ccc(O)cc1)C(=O)N[C@@H](Cc1ccccc1)C(=O)N[C@@H](CO)C(=O)O [compound 57] (H-YLPGQF[dY]FS-OH; N-terminus assumed)', 0.433),
  ('CC(C)C[C@H](NC(=O)CN)C(=O)N[C@@H](CCC(N)=O)C(=O)N[C@H](CCC(N)=O)C(=O)N[C@@H](Cc1ccccc1)C(=O)N[C@@H](Cc1ccc(O)cc1)C(=O)N[C@H](Cc1c[nH]c2ccccc12)C(=O)NCC(=O)N[C@H](Cc1ccccc1)C(=O)O [compound 132] (H-GLQ[dQ]FY[dW]G[dF]-OH; N-terminus assumed)', 1.95),
  ('CC(C)[C@H](NC(=O)[C@@H](N)Cc1ccc(O)cc1)C(=O)N1CCC[C@H]1C(=O)NCC(=O)N[C@@H](CCC(N)=O)C(=O)N[C@@H](Cc1ccccc1)C(=O)N[C@@H](C)C(=O)N[C@@H](Cc1ccccc1)C(=O)N[C@H](Cc1ccccc1)C(=O)O (H-YVPGQFAF[dF]-OH; N-terminus assumed)', 0.7),
  ('CC(C)C[C@H](NC(=O)[C@H](C)NC(=O)[C@H](Cc1ccc(O)cc1)NC(=O)[C@@H](CCC(N)=O)NC(=O)CNC(=O)[C@@H]1CCCN1C(=O)[C@H](CC(C)C)NC(=O)[C@@H](N)Cc1ccc(O)cc1)C(=O)N[C@H](Cc1ccccc1)C(=O)O [compound 135] (H-YLPG[dQ]YAL[dF]-OH; N-terminus assumed)', 0.667),
  ('CC(C)C[C@H](NC(=O)[C@@H](N)Cc1ccc(O)cc1)C(=O)N1CCC[C@H]1C(=O)N[C@H](CC(C)C)C(=O)NCC(=O)N[C@@H](Cc1ccc(O)cc1)C(=O)N[C@@H](C)C(=O)N1CCC[C@@H]1C(=O)N[C@H](Cc1ccccc1)C(=O)O [compound 151] (H-YLP[dL]GYA[dP][dF]-OH; N-terminus assumed)', 1.52),
  ('CC(C)C[C@H](N)C(=O)N[C@H](Cc1ccccc1)C(=O)NCC(=O)N1CCC[C@@H]1C(=O)N[C@@H](Cc1ccc(O)cc1)C(=O)NCC(=O)N[C@H](Cc1c[nH]c2ccccc12)C(=O)N[C@H](CO)C(=O)N[C@@H](C)C(=O)O [compound 138] (H-L[dF]G[dP]YG[dW][dS]A-OH; N-terminus assumed)', 10.6);
